pIC50: recorded values
# Tested On: wt human TYK2, catalytic site (Homo sapiens)
# Construct: wt human TYK2, catalytic site
# Sequence (P29597 897-1176 limits assumed): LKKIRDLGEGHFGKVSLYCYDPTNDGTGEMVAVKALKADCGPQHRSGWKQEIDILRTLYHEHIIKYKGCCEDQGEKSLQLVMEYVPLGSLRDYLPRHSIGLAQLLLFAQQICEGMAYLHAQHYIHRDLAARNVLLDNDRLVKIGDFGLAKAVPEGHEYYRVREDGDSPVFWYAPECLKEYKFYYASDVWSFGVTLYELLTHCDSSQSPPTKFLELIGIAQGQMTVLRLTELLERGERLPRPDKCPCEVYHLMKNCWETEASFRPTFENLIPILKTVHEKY
# Test Name: HTRF KinEASE assay, TYK2
# Condition Description: 1 μM ATP; read-out: IC50, Activity Toward TYK2
pIC50: −log10 of the molar value.
Property Name: pIC50

chemical_smiles=CN1CCN(C(=O)c2ccc(Nc3nn(-c4c(Cl)cccc4Cl)nc3C(N)=O)nc2)CC1 reported="6.00 to 7.00"
chemical_smiles=NC(=O)c1nn(-c2c(Cl)cccc2Cl)cc1Nc1ccc(-c2nccn2CC(F)(F)F)cc1 reported="7.00 to 8.00"
chemical_smiles=CC1(C)CN(C(=O)c2ccc(Nc3cn(-c4c(Cl)cccc4Cl)nc3C(N)=O)cc2)C1 reported="> 8.00"
chemical_smiles=CCn1ncnc1-c1ccc(Nc2nn(-c3c(Cl)cccc3Cl)nc2C(N)=O)nc1 reported="6.00 to 7.00"
